Source: the nanobody polyreactivity screen of Harvey et al. (2022)

method: yeast display, Sf9 membrane polyspecificity reagent, FACS + sequencing; frameworks hold sequencing errors
measurement_kind: polyreactivity (PSR sort gate)

Worked examples follow.
{"residues": "QVQLVESGGGLVQAGGSLRLSCAASGRTIPNYAMGWTRQAPGKERELVAAISSSGDRTYYADSVKGRFTISRDNAKNTVYLQMNSLKPEDTAVYYCAADRGARGDYWGQGTQVTVSS", "measurement_kind": "polyreactivity (PSR sort gate)", "reported_result": "high polyreactivity"}
{"residues": "QVQLVESGGGLVQAGGSLRLSCAASGFIFPNYAMGWYRQAPGKVRELVAAISVRGGNTYYADSVKGRFTISRDNAKNTVYLQMNSLKPEDTAVYYCNAVLRSGYFPEYYYWGQVTQVTVSS", "measurement_kind": "polyreactivity (PSR sort gate)", "reported_result": "high polyreactivity"}
{"residues": "QVQLVESGGGLVQAGGSLRLSCAASGFIFYAYAMGWYRQAPGKERELVAAITSSGSRTYYADSVKGRFTISRDNAKNTVYLQMNSLKPEDTAVYYCNARSGGVRYSNIGTEKYDYWGQGTQVTVSS", "measurement_kind": "polyreactivity (PSR sort gate)", "reported_result": "low polyreactivity"}
{"residues": "QVQLVESGGGLVQAGGSLRLSCAASGFTFPYYAMGWYRQAPGKERELVAAITYSGDSTYYADSVKGRFTISRDNAKNTVYLQMNSLKPEDTAVYYCNVTPDWAVTDDYWGQGTQVTVSS", "measurement_kind": "polyreactivity (PSR sort gate)", "reported_result": "low polyreactivity"}

Item: QVQLVESGGGLVQAGGSLRLSCAASGSIFGTNAMGWYRQAPGKERELLAAISLSTGSTYYADSVKGRITISRDYAKNTVYLQMNSLKPEDTAVYYCAVRHRYTRAYWGRDYWGQGTQVTVSS | polyreactivity (PSR sort gate): low polyreactivity

Item: QVQLVESGGGLVQAGGSLRLSCAASGSNFRYYAMGWDRQAPGKERELVAAISYSGGTTYYADSVKGRFTISRDNAKNTVYLQMNSLKPEDTAVYYCAVPLIGVDGYAYDYWGQGTQVTVSS | polyreactivity (PSR sort gate): low polyreactivity

Item: QVQLVESGGGLVQAGGSLRLSCAASGFIFTTYAMGWSRQAPGKEWELVAAISTSGGRTYYADSVKGRFTISRDNAKNTVYLQMNSLKPEDTAVYYCNTYSYYSYDWGQGTQVTVSS | polyreactivity (PSR sort gate): high polyreactivity

Item: QVQLVESGGGLVQAGGSLRLSCAASGFIFSLYAMGWYRQAPGTERELVAAISKRGGSTNYADSVKGRFTISRDNAKNTVYLQMNSLKPEDTAVYYCAKARPGFLYDHWGQGTQVTVSS | polyreactivity (PSR sort gate): high polyreactivity

Item: QVQLEESGAGLVQAGGSLRLSCAASGSIFVRNAMAWYRHAPGKERELVAVITRSAGRTYYADSVKGRFTISRDNAKNTVYLQMNSLKPEDTAVYYCAASPSTPNKYGSWGQGTQVTVSS | polyreactivity (PSR sort gate): high polyreactivity

Item: QVQLVESGGGLVQAGGSLRLSCAASGSTFAYNTMGWYRQAPGKERELVAAISQRGGSTYADTVKGRFTISRDNAKNTVYLQMNSLKPEENAVYYWAADGYTYKFDYWGQGTQVTVSS | polyreactivity (PSR sort gate): low polyreactivity

---

method: yeast display, Sf9 membrane polyspecificity reagent, FACS + sequencing; frameworks hold sequencing errors
measurement_kind: polyreactivity (PSR sort gate)

Worked examples follow.
{"residues": "QGQHVESGGGLVQAGGSLRLSCAASGTFVYAMGWYRQAPGKERELVAAISYSGGSTYYADSVKGRFTISRDNAKNTVYLQMNSLKPEDTAVFYCNVLGWYYTTTKYDYWGQGTQVTVSS", "reported_result": "high polyreactivity"}
{"residues": "QVQLVESGGGLVQAGGSLRLSCAASGSTLYYYAMGWYRQAPGKERELVAAISSGGRTYYADSVKGRFTISRDNAKNTVYLQMNSLKPEDTAVYYCNAVRYQKIFDYWGQGTQVTVSS", "reported_result": "high polyreactivity"}
{"residues": "QVQLVESGGGLVQAGGSLRLSCAASGRIFGGYAMGWYRQAPGKERELVAAITSSGSTNYADSVKGRFTISRDNAKNTVYLQMNSLKPEDTAVYYCATDFKTVYYWWGMDYWGQGTQVTVSS", "reported_result": "low polyreactivity"}
{"residues": "QVQLVESGGGLVQAGGSLRLSCAASGSIFRLYAKGSYRQAPGKERELVARITTGGSTNYADSVKGRFTISRDNANNTVYLQMNSLKPEDTAVYYSWGVPRRYYYWGQGTQVTVSS", "reported_result": "high polyreactivity"}
{"residues": "QVQLVESGGGLVQAGGSLRLSCAASGFTFRWYTMGWYRQAPGKERELVAAISWSGTSTYYADSVKGRFTISRDNAKNTVYLQMNSLKPEDTAVYYCAAADFYYTGADDYWGQGTQVTVSS", "reported_result": "high polyreactivity"}
{"residues": "QVQLVESGGGLVQAGGSLRLSCAASGRTFVPYAMGWYIQAPGKEREFVAAISSRVGSTYYADSVKGRFTISRDNAKNTVYLQMKSLKPEDTAVYYCNAPFKPAGFYSAWKYDYWGQGTQVSVSS", "reported_result": "low polyreactivity"}
{"residues": "QVQLVESGGGLVQAGGSLRLSCAASGNTFPTNVMGWYRQAPGKERELVAAITRSGGTTYYADSVKGRFTISRDNAKNTVYLQMNSLKPEDTAVYYCAAGPTQGWGRGYWGQGTQVTVSS", "reported_result": "high polyreactivity"}
{"residues": "QVQLVESGGGLVQAGGSLRLSCAASGSIFLYYAMGWYIQAPGKERELVAGIRRGGRTNYADSVKGRFTISRDNAKNTVYLQMNSLKPEDTAVYYCAKGGYWGHGTQVTVSS", "reported_result": "high polyreactivity"}

Item: QVQLVESWGGLVQAGGSLRLSCAASGSTFILYAMGGYRQAPGNERELVAAITSRGVSTYYADSVKGRFTISRDNAKNTVYLQMNSLKPEDTAVYNWAADQYQASYYYWGQGTQVTVSS | polyreactivity (PSR sort gate): low polyreactivity

Item: QVQLVESGGGSVQAGGSLRLSCAASGRTFVRYAMGWYRQAPGKERELVAAITWSGGSTYYADSVKGRFTISRDNAKNTVYLQMNSLKPEDTAVFNCADYPVQWGSLYDYWGQGTQVTVSS | polyreactivity (PSR sort gate): high polyreactivity

Item: QVQLVESGGGLVQAGGSLRLSCAASGNLFYGYAMGWYRQAPGKERELVAAISGSSTYYADSVKGRFTISRDNAKYTVYLQMNSLKPEDTAVYYCAVPQYLYLQAGHGFRYYYWGQGTQVTVSS | polyreactivity (PSR sort gate): high polyreactivity

Item: QVQLVDSGGGLVQAGGSLRLSCAASGRTFTIYAIGWYRQAPGKEREFVASITGSDGSTYYADSVKGRFTISRDNAKNTVYLQMNSLKPEDTAVYYCAAATSSAYDYWGQGTQVTVSS | polyreactivity (PSR sort gate): low polyreactivity

---

method: yeast display, Sf9 membrane polyspecificity reagent, FACS + sequencing; frameworks hold sequencing errors
measurement_kind: polyreactivity (PSR sort gate)

{"residues": "QVQLVESGGGLVQAGGSLRLSCAASGSIFNPNAMGWYRQAPGKEREVVAAIDSGGTTDYADSVKGRFTISRDNAKNTVYLQINSLKPEDTAVYYCNADRTVTSSSFTDYDYWGQGTQVTVSS", "measurement_kind": "polyreactivity (PSR sort gate)", "reported_result": "high polyreactivity"}
{"residues": "QVQLVESGGGLVQAGGSLRLSCAASGRIFQWNAMGWYRQAPGKERELVATISSRGGSTYYADSVKGRFTISRDNANNTVYLQMNSLKPEDTAVYYCAARYYAKYRSYDYWGLGTQVTVSS", "measurement_kind": "polyreactivity (PSR sort gate)", "reported_result": "high polyreactivity"}

---

method: yeast display, Sf9 membrane polyspecificity reagent, FACS + sequencing; frameworks hold sequencing errors

{"residues": "QVPLVESGGGLVQAGGSLRLSCAASGSICWSYAMGWYRQAPGTERELVASITRSGGSTYYADSVKGRFTISRDYAKNSLYLQLNSLKPEETAVYYCNARRTTRWGSSKYEYDYWGQATQVTVSS", "polyreactivity (PSR sort gate)": "high polyreactivity"}
{"residues": "QVQLVESGGGLVQAGGSLRLSCAASGSIFYRNTMGWYRQAPGKERELVAGITGNGGRTYYADSVKGRFTISRDNAKNTVYLQMNSQKPEDTAVYYCAAGTWTWYRYYYWGQGTQVTVSS", "polyreactivity (PSR sort gate)": "high polyreactivity"}
{"residues": "QVQHVESGGGLVQAGGSLRLSCAASGRTIIKYAMGWYRQAPGKERELVAAISRSAGSTYYADSVKGRFTISRDNAKNTVYLQMNSLKPEDTAVYYCNAVTSSYLRFDYWGQGTQVTVSS", "polyreactivity (PSR sort gate)": "high polyreactivity"}
